Molecular target: Cytochrome P450 1A2 (Homo sapiens, UniProt P05177)
Sequence (P05177 whole entry): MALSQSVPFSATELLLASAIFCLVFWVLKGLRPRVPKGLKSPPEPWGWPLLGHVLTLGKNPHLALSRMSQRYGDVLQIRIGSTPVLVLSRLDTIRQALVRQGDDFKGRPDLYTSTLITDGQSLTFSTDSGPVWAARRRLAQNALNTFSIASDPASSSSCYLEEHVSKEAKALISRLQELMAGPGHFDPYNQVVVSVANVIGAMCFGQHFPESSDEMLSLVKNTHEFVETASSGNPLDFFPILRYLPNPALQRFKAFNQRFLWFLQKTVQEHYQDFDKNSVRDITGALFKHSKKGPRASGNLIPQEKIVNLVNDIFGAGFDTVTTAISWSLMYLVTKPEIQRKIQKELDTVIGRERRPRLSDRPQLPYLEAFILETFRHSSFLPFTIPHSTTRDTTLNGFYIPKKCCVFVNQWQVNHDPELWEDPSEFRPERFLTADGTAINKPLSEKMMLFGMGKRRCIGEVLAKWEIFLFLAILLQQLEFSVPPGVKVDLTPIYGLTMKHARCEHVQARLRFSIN
Assay: Inhibition of human cytochrome P450 1A2
Format: ADME
pIC50: −log10 of the molar value.
property.measured: pIC50

CN1CCN(c2ccc3c(n2)nc(-c2ccc(F)cc2)n3-c2ccnc(NC3CCCC3)n2)CC1; < 5.70
C[C@H](Nc1cc(-c2sc(C3CCN(C)CC3)nc2-c2ccc(F)cc2)ccn1)c1ccccc1; < 5.70

Here is the next item to consider.
Query (compound): `CN1CCC(O)(c2cn(-c3ccnc(NC4CCCC4)n3)c(-c3cccc(C(F)(F)F)c3)n2)CC1` ; field requested: pIC50
< 5.70

====

Each entry below carries its recorded pIC50.
Molecular target: Insulin-like growth factor 1 receptor (Homo sapiens, UniProt P08069)
Sequence (P08069 31-736 limits assumed): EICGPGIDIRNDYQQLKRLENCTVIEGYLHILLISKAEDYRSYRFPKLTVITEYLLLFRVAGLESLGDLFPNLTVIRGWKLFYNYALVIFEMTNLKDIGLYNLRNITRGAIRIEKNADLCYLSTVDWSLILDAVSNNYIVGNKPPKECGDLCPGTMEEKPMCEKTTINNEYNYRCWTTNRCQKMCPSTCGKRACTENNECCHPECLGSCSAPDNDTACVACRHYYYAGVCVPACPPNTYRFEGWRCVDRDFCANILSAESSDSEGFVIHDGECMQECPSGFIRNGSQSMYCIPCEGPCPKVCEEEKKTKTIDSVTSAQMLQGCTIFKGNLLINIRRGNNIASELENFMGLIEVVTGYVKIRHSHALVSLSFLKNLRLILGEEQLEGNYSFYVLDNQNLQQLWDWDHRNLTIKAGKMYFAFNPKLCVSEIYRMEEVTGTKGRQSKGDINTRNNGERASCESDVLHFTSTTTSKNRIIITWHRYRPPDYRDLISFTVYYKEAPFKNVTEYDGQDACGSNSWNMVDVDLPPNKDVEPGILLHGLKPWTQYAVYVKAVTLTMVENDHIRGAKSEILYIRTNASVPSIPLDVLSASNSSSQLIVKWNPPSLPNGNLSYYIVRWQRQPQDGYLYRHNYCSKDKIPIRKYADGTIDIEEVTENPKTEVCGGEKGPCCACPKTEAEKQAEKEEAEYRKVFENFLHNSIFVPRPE
Sequence (P08069 741-1367 limits assumed): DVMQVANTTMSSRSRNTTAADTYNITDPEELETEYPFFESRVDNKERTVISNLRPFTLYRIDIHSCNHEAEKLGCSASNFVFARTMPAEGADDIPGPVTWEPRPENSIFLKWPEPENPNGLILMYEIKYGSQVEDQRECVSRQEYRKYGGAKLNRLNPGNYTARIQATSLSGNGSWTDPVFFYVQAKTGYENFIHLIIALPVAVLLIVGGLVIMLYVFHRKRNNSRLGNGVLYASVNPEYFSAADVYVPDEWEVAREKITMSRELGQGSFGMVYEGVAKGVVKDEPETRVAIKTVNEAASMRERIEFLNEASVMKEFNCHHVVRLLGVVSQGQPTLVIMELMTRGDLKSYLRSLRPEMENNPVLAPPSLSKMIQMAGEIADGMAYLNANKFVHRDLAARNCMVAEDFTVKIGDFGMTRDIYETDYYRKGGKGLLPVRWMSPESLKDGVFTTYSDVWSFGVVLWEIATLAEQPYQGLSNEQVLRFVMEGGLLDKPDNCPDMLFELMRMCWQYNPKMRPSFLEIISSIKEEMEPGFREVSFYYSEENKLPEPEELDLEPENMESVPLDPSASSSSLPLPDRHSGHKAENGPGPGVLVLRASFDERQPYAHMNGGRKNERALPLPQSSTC
pIC50: −log10 of the molar value.

Below, 2 molecules whose answers are already recorded.
CN1CCN(c2ccc3c(n2)nc(-c2ccc(F)cc2)n3-c2ccnc(NC3CCCC3)n2)CC1; < 5.00
CN1CCC(O)(c2cn(-c3ccnc(NC4CCCC4)n3)c(-c3cccc(C(F)(F)F)c3)n2)CC1; < 5.00

Here is the next item to consider.
Query (molecule): `C[C@H](Nc1cc(-c2sc(C3CCN(C)CC3)nc2-c2ccc(F)cc2)ccn1)c1ccccc1` ; field requested: pIC50
< 5.00

====

Biological target: RAF proto-oncogene serine/threonine-protein kinase (Homo sapiens, UniProt P04049)
Sequence (P04049 whole entry): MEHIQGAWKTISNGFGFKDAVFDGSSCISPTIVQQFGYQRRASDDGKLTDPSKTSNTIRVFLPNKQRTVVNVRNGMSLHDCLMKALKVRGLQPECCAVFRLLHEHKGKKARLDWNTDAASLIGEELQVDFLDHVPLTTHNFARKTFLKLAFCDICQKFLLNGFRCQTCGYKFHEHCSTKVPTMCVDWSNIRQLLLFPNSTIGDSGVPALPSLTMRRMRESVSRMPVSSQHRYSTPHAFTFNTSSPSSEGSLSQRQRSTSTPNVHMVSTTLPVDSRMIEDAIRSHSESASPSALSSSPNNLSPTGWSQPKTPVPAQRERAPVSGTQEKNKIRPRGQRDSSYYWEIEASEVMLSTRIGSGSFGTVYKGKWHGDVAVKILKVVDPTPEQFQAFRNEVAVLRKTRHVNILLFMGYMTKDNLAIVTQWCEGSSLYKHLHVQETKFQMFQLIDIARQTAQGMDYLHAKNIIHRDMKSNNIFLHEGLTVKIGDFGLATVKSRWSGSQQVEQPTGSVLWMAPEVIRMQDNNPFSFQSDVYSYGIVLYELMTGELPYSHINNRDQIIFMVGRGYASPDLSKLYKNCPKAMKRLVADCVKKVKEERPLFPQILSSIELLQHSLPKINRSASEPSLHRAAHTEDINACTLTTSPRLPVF
property.measured: IC50 (nM)
State just the number; it will be interpreted in nM.

Query (molecule): `C[C@H](Nc1cc(-c2sc(C3CCN(C)CC3)nc2-c2ccc(F)cc2)ccn1)c1ccccc1` ; field requested: IC50
2100

====

Experiment: Half life was determined
Format: ADME, organism-based
Details: rat, in vivo
property.measured: half-life (h)
State just the number; it will be interpreted in h.

Below, 2 compounds whose answers are already recorded.
CN1CCC(O)(c2cn(-c3ccnc(NC4CCCC4)n3)c(-c3cccc(C(F)(F)F)c3)n2)CC1; 3.5
C[C@H](Nc1cc(-c2sc(C3CCN(C)CC3)nc2-c2ccc(F)cc2)ccn1)c1ccccc1; 12.5

Here is the next item to consider.
Query (compound): `CN1CCN(c2ccc3c(n2)nc(-c2ccc(F)cc2)n3-c2ccnc(NC3CCCC3)n2)CC1` ; field requested: half-life
4.1

====

Molecular target: Mitogen-activated protein kinase 8 (Homo sapiens, UniProt P45983)
Sequence (P45983 whole entry): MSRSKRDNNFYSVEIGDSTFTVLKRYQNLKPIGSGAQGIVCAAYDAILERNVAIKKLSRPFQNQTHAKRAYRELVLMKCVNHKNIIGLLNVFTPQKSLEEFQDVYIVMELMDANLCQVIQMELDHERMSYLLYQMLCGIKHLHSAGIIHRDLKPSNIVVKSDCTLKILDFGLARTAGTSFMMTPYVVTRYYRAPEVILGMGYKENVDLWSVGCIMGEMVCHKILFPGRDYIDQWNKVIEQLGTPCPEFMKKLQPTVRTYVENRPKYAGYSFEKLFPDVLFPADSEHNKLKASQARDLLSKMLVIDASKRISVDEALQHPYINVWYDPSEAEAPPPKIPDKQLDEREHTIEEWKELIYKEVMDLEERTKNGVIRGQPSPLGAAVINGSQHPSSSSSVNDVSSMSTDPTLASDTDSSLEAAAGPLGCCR
Test: Inhibition of human c-Jun N-terminal kinase 1
Each entry below carries its recorded IC50.
State just the number; it will be interpreted in nM.

CN1CCN(c2ccc3c(n2)nc(-c2ccc(F)cc2)n3-c2ccnc(NC3CCCC3)n2)CC1; 1500

Query (molecule): `C[C@H](Nc1cc(-c2sc(C3CCN(C)CC3)nc2-c2ccc(F)cc2)ccn1)c1ccccc1` ; field requested: IC50
1900

====

pIC50: −log10 of the molar value.
Heads up, these molecules all have pIC50 values measured for Cytochrome P450 3A4 (Homo sapiens).

CN1CCC(O)(c2cn(-c3ccnc(NC4CCCC4)n3)c(-c3cccc(C(F)(F)F)c3)n2)CC1; < 5.70

Query (molecule): `C[C@H](Nc1cc(-c2sc(C3CCN(C)CC3)nc2-c2ccc(F)cc2)ccn1)c1ccccc1` ; field requested: pIC50
< 5.70

Now try `CN1CCN(c2ccc3c(n2)nc(-c2ccc(F)cc2)n3-c2ccnc(NC3CCCC3)n2)CC1` .
< 5.70
